// data source = the supplement of paper PMC10567573

B1: ZC3H15 (parent)
chain: ENLFTGEDLDELEEELNTLDLEE

variants of: B1; test: protein stability index of a GFP-peptide fusion (GPS, HEK-293T) (PSI 1-6); higher = more stable; conditions: c terminus: native;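 further: lentivirally expressed fusions sorted by FACS into six bins by GFP to DsRed ratio, PSI derived from sequencing read proportions per bin multiplied by bin number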
Response key: class 1 means protein stability index >= 4; class 0 means protein stability index < 4.

[[record]]
variant_name = "E1S"
assigned_class = "class 1"

[[record]]
variant_name = "E22V"
assigned_class = "class 1"

[[record]]
variant_name = "T18V"
assigned_class = "class 0"

[[record]]
variant_name = "F4M"
assigned_class = "class 1"

[[record]]
variant_name = "E1Y"
assigned_class = "class 0"

[[record]]
variant_name = "D20G"
assigned_class = "class 1"

[[record]]
variant_name = "L16A"
assigned_class = "class 0"

[[record]]
variant_name = "D20T"
assigned_class = "class 1"

